EXPERIMENTAL_DETAILS: Solubility in 17% methane sulfonic acid (MSA)/DI water solution
CONDITION_PARAMETERS: aqueous with cosolvent or surfactant or cyclodextrin, thermodynamic from solid
Recorded solubility by entry

1. OCCSCSCCO [Comparative 2, reference compound] ... > 50 mg/mL

What solubility value was documented for this compound, O=S(=O)(O)CCCSCCSCCCS(=O)(=O)O [Compound 5] ?
> 60 mg/mL

What solubility value was documented for this compound, O=S(=O)(O)CCSCCSCCS(=O)(=O)O [Compound 4] ?
> 60 mg/mL

What solubility value was documented for this compound, O=C(O)CSCCSCC(=O)O [Compound 3] ?
30 mg/mL

What solubility value was documented for this compound, O=C(O)CSCSCC(=O)O [Compound 8] ?
> 50 mg/mL

What solubility value was documented for this compound, O=S(=O)(O)CCSCCCSCCS(=O)(=O)O [Compound 11] ?
> 50 mg/mL

What solubility value was documented for this compound, OCCCSCSCCCO [Compound 7] ?
> 50 mg/mL

What solubility value was documented for this compound, OCCSCCSCCO [Comparative 1, reference compound] ?
30 to 35 mg/mL

What solubility value was documented for this compound, O=C(O)CCSCCSCCC(=O)O [Compound 2] ?
< 5 mg/mL

What solubility value was documented for this compound, O=S(=O)(O)CCCSCCCSCCCS(=O)(=O)O [Compound 12] ?
> 50 mg/mL

What solubility value was documented for this compound, O=C(O)CC(SCSC(CC(=O)O)C(=O)O)C(=O)O (stereo not shown) [Compound 9] ?
~10 mg/mL

What solubility value was documented for this compound, O=C(O)CSCCCSCC(=O)O [Compound 10] ?
> 50 mg/mL

What solubility value was documented for this compound, NC(=O)CCSCCSCCC(N)=O [Compound 1] ?
< 5 mg/mL

The reported measurements were obtained from patent US8980077B2.
